Values were extracted from ChEMBL document CHEMBL3507680.

- PROTOCOL SUMMARY: Human HepG2 cell viability assay in 384 well format
- Type: toxicity, cell-based
- Set-up: dose 125 nL, time 70.5 hour; concentration not given beside the values
- CONDITION CONTEXT: HepG2 cells, read-out: Inhibition
Listed next: entries and their corresponding cytotoxicity at 70.5 h.
Write the number in % without appending the unit.

Supply reported cytotoxicity at 70.5 h belonging to this compound: OC(CNCc1nnc2ccccn12)c1ccc2c(c1)OCCCO2 (configuration not stated)
-8.23

Supply recorded cytotoxicity at 70.5 h for `CCc1ncc2c(n1)CN(CC(=O)N1CCc3sccc3C1)CC2` here.
-9

Consider the compound `CCN(C(=O)c1cccc2c1OCO2)c1ccc(Br)cn1` . State its measured cytotoxicity at 70.5 h.
-7.06

Identify cytotoxicity at 70.5 h associated with the compound `CCc1nnc(CNC(=O)c2cc3c(nc2OC)CCC3)s1`
2.77

Please give the documented cytotoxicity at 70.5 h of CCc1nnc(C2Cc3ccccc3CN2Cc2nc(C3CC3)no2)o1 (configuration not stated)
-5.61

Supply measured cytotoxicity at 70.5 h of `Cc1noc(C)c1CN1C(=O)[C@H]2CC[C@@H]1CN(C(=O)c1cscn1)C2` in your reply.
-2.09

Others:
Specify reported cytotoxicity at 70.5 h for the compound shown: CC(O)c1cn(Cc2ccc(F)cc2)nn1 (configuration not stated)
-4.74

Note cytotoxicity at 70.5 h for the compound shown: `CN(Cc1ccc(Cl)s1)C(=O)c1cccc(OCC(N)=O)c1`
-15.3

Supply recorded cytotoxicity at 70.5 h for `C=C(C)CN(CC)Cc1nc(C(C)(C)C)no1` here.
10.8

Complete the entry with cytotoxicity at 70.5 h for `COCCN1CCC2(CC1)CN(CCn1cccn1)C(=O)CO2`
1.22

Please give the documented cytotoxicity at 70.5 h of CS(=O)(=O)NCC1CCCN(C(=O)c2ccc3c(c2)CCC3)C1 (configuration not stated)
3.24

Output cytotoxicity at 70.5 h of `Cc1nnc2n1CCN(Cc1nc3c(F)cccc3[nH]1)C2`
-9.16
